Entry source: patent US11492346B2

Molecular target: KAT5 (Homo sapiens (Human))
Sequence (Q92993 whole entry): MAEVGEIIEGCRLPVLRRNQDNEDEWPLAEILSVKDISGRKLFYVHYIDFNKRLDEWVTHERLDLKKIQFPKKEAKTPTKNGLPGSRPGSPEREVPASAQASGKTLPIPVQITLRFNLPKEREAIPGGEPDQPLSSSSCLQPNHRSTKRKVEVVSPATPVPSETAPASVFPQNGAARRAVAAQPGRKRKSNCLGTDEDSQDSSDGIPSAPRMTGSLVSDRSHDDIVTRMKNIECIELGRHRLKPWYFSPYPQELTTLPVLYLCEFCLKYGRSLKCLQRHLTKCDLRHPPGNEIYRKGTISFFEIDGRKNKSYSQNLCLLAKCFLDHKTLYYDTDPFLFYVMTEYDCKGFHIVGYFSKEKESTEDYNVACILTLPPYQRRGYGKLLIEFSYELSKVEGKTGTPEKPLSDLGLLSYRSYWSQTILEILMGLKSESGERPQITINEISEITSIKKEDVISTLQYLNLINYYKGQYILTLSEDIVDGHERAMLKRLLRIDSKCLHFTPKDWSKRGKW
Experiment: KAT assay (SAMDI mass spectrometry), KAT5;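 note: Baculovirus-expressed KAT5 acetylating a histone H4 peptide at room temperature, read as percent conversion to product, Ki from a Morrison tight-binding competitive fit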
Assay type: biochemical
Conditions: read-out: KAT5 Ki at 1 μM AcCoA
Recorded Endpoint: pKi
Please treat pKi as minus the base-10 logarithm of the molar concentration.

>>> value("COc1cccc(OC)c1S(=O)(=O)Nc1noc2cc(Cn3cc(F)cn3)cc(OC)c12")
5.34
>>> value("CCOc1ccccc1S(=O)(=O)Nc1noc2cc(Cn3cccn3)cc(OC)c12")
6.11
>>> value("COc1ccc(S(=O)(=O)Nc2noc3cc(Cn4cccn4)cc(OC)c23)cc1C")
5.33

Qu. Return reported pKi. Input compound: COc1cc(Cn2cccn2)cc2onc(NS(=O)(=O)c3ccc(C(F)F)cc3)c12
Ans. 5.07

----------
Target: KAT6B (Homo sapiens (Human), UniProt Q8WYB5)
Sequence (Q8WYB5 whole entry): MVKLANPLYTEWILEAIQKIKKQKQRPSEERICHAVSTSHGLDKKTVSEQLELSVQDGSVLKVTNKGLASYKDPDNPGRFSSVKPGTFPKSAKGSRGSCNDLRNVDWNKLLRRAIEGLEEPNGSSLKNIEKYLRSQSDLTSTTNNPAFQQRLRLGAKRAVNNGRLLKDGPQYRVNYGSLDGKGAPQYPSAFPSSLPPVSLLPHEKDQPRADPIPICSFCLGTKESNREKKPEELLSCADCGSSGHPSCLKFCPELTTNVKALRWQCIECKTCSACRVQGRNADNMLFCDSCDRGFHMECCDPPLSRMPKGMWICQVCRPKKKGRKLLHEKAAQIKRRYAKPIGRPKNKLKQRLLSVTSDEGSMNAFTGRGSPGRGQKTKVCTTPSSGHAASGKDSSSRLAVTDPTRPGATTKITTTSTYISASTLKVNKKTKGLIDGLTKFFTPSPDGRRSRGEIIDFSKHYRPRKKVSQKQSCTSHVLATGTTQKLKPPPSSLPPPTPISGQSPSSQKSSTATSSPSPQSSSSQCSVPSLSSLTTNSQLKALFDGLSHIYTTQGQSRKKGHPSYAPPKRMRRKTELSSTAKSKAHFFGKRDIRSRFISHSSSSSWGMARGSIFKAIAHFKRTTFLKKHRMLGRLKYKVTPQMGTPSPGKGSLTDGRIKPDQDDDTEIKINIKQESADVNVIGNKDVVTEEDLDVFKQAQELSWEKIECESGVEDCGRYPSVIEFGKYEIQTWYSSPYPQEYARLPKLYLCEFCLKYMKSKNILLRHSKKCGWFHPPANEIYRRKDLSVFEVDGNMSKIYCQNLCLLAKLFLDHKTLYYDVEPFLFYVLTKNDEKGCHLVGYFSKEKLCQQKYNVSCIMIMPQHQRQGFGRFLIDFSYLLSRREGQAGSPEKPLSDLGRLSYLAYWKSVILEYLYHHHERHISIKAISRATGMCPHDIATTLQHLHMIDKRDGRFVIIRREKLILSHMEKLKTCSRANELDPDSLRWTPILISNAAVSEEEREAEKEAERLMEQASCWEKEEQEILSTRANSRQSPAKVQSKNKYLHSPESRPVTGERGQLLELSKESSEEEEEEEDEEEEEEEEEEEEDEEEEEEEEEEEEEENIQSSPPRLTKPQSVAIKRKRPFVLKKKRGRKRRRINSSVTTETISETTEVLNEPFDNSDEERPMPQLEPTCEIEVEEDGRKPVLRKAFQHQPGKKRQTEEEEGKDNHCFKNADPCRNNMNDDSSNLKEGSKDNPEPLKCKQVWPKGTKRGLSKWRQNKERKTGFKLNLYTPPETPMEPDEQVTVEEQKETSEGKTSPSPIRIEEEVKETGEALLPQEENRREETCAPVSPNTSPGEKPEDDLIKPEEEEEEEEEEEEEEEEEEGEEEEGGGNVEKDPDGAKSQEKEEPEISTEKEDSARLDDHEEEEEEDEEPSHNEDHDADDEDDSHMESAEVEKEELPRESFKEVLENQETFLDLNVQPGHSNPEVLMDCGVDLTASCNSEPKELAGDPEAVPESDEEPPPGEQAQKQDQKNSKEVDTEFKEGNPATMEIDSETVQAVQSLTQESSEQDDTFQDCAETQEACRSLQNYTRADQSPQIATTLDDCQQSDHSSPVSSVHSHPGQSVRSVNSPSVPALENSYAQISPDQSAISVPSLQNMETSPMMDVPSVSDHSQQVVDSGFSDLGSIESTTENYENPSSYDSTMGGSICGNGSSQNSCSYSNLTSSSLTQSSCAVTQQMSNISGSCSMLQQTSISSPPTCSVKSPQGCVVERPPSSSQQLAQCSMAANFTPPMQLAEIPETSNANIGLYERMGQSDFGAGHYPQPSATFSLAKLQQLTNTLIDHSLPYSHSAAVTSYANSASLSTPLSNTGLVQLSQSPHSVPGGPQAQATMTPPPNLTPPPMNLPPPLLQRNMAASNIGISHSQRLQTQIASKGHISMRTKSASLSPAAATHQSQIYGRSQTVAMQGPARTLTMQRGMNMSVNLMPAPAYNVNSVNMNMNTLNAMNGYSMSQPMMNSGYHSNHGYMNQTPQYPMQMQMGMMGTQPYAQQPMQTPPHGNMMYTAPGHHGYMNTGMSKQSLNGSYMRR
Experiment: KAT assay (SAMDI mass spectrometry), KAT6B
Format: biochemical
Conditions: KAT6b Ki at 1 μM AcCoA, 1 μM AcCoA
Recorded Endpoint: Ki (nM)
State the answer as a number, implicitly in nM.

Qu. Return reported Ki. Input molecule: COc1ccccc1S(=O)(=O)Nc1noc2cc(Cn3cccn3)cc(OC)c12
Ans. 2.11

----------
In this section we review reported Ki values for a set of molecules.
Target: KAT6B (Homo sapiens (Human))
Experiment: KAT assay (SAMDI mass spectrometry), KAT6B
Format: biochemical
Settings: 25 μM AcCoA; read-out: KAT6b Ki at 25 μM AcCoA
Put down the number, then write its unit next to it.

Consider the reported Ki for these molecules:
>>> value("COc1cc(Br)cc(OC)c1S(=O)(=O)Nc1noc2cc(Cn3cccn3)cc(OC)c12 [Example 8]")
"6.63 nM"
>>> value("CCc1ccc(OC)c(S(=O)(=O)Nc2noc3cc(Cn4cccn4)cc(OC)c23)c1 [Example 1]")
"1.14 nM"
>>> value("COCc1ccc(OC)c(S(=O)(=O)Nc2noc3cc(Cn4cccn4)cc(OC)c23)c1 [Example 12]")
"2.14 nM"
>>> value("COc1cc2c(cc1S(=O)(=O)Nc1noc3cc(Cn4cccn4)cc(OC)c13)CCC2 [Example 29]")
"1.4 nM"
>>> value("COc1cccc(OC)c1S(=O)(=O)Nc1noc2cc(Cn3nccn3)cc(OC)c12 [Example 23]")
"1.34 nM"

Qu. Return reported Ki. Input molecule: COc1cccc(OC)c1S(=O)(=O)Nc1noc2cc(Cn3cccn3)cc(F)c12 [Example 94]
Ans. 2.5 nM

Qu. Return reported Ki. Input molecule: COc1cc2c(cc1S(=O)(=O)Nc1noc3cc(Cn4cccn4)cc(OC)c13)CCCC2 [Example 20]
Ans. 4.08 nM

Qu. Return reported Ki. Input molecule: COc1cc(OC)c(S(=O)(=O)Nc2noc3cc(Cn4cccn4)cc(OC)c23)c(OC)c1 [Example 14]
Ans. 1.05 nM

----------
Target: KAT6B (Homo sapiens (Human), UniProt Q8WYB5)
Test: KAT assay (SAMDI mass spectrometry), KAT6B
Format: biochemical
Details: 25 μM AcCoA; read-out: KAT6b Ki at 25 μM AcCoA
In this section we review reported pKi values for a set of compounds.
Please treat pKi as minus the base-10 logarithm of the molar concentration.

>>> value("COc1cccc(OC)c1S(=O)(=O)Nc1noc2cc(Cn3cccn3)c(C)cc12")
8.62

Qu. Return reported pKi. Input compound: COc1cc(OC)c(S(=O)(=O)Nc2noc3cc(Cn4cccn4)cc(OC4CC4)c23)c(OC)c1
Ans. 7.90

Qu. Return reported pKi. Input compound: COc1cccc(OC)c1S(=O)(=O)Nc1noc2cc(Cc3ccccn3)cc(OC)c12
Ans. 8.54

Qu. Return reported pKi. Input compound: COc1cc(Cn2cccn2)cc2onc(NS(=O)(=O)c3ccc(C(F)F)cc3)c12
Ans. 7.53

Qu. Return reported pKi. Input compound: COc1cc(Cn2cccn2)cc2onc(NS(=O)(=O)c3cccc(C)c3C#N)c12
Ans. 7.22

Qu. Return reported pKi. Input compound: COc1cccc(OC)c1S(=O)(=O)Nc1noc2cc(Cn3cccn3)c(F)c(OC)c12
Ans. 8.92

Qu. Return reported pKi. Input compound: COc1cccc(OC)c1S(=O)(=O)Nc1noc2cc(Cn3cccn3)c(OC(F)F)cc12
Ans. 9.44

Qu. Return reported pKi. Input compound: COc1cc(Cn2cccn2)cc2onc(NS(=O)(=O)c3ccc(C)c(F)c3)c12
Ans. 8.37

Qu. Return reported pKi. Input compound: COc1cccc(OC)c1S(=O)(=O)Nc1noc2cc(Cc3ncccn3)cc(OC)c12
Ans. 7.60

Qu. Return reported pKi. Input compound: COc1cc(Cn2cccn2)cc2onc(NS(=O)(=O)c3ccc(C)c(C)c3)c12
Ans. 8.16

Qu. Return reported pKi. Input compound: CCc1cc(Cn2cccn2)cc2onc(NS(=O)(=O)c3c(OC)cccc3OC)c12
Ans. 8.08

Qu. Return reported pKi. Input compound: COc1cc(C)ccc1S(=O)(=O)Nc1noc2cc(Cn3cccn3)cc(OC)c12
Ans. 8.88

Qu. Return reported pKi. Input compound: COc1cc(Cn2cccn2)cc2onc(NS(=O)(=O)c3cc(C)c(F)c(C)c3)c12
Ans. 7.59

Qu. Return reported pKi. Input compound: COc1ccc(C)cc1S(=O)(=O)Nc1noc2cc(Cn3cccn3)cc(OC)c12
Ans. 8.92
